Data credit: PubChem BioAssay

measurement-target: Short transient receptor potential channel 4 (Mus musculus) (UniProt Q9QUQ5)
method-description: calcium flux activators in TRPC4/5HT1a cells, counter-screen for TRPC4 activator project, cell-based, second counter screen, HEK293 TRPC4/5HT1a, Fluo-4 (AID 434977)
condition-parameters: Fluo-4 calcium flux, at 10 µM
Calls of active or inactive are those of the source.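 Rule for the calls: active = calcium signal rise above buffer-control mean plus 5 SD in both duplicates, and also a hit in the primary screen; inactive = the rest.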
Reply using exactly one outcome from T for active, F for inactive

Worked examples follow.
compound: CN(CCc1ccccn1)C(=O)CC1C(=O)NCCN1Cc1ccccc1C(F)(F)F (configuration not stated)
class-assignment: T
//
compound: Cc1onc(-c2ccccc2)c1C(=O)NNC(=S)NC(=O)c1ccc(Br)cc1
class-assignment: T
//
compound: COc1cc(OC)cc(C(=O)NC2CCCN(Cc3ccc(Cl)cc3)C2)c1 (configuration not stated)
class-assignment: T
//
compound: COc1ccc(C(=O)NC(=S)NNC(=O)c2c(-c3ccccc3)noc2C)cc1
class-assignment: T
//
compound: Fc1ccc(-c2nnc(CN3CCN(c4ncc(C(F)(F)F)cc4Cl)CC3)o2)cc1
class-assignment: T

Exercise: Give the logged outcome of this assay for the following compound: `COc1ccc(C(=O)NNC(=S)NC(=O)c2ccccc2)cc1`
Key: T

Exercise: GET /call?item= Cc1ccc(NS(=O)(=O)c2ccc(C(=O)N3CC(C)CC(C)C3)cc2)cc1 (configuration not stated) returns the recorded outcome of this test.
Key: T

Exercise: What was the test verdict on OC(CNC1CCCc2ccccc21)COc1c(Cl)cccc1Cl (configuration not stated) ?
Key: T

Exercise: Short answer needed: outcome of this test for CCC1(c2ccc(F)cc2)NC(=O)N(CC(=O)c2cc(C)n(C3CC3)c2C)C1=O (configuration not stated) ?
Key: T

Exercise: Dear colleague, could you share the recorded outcome for `Cc1ccc(Sc2cc(C(=O)NCCN(C)C)c3ccccc3n2)cc1` when you have a moment?
Key: T

Exercise: How did this test come out for CN(C)C(CNC(=O)Cc1cccc(C(F)(F)F)c1)c1ccccc1 (configuration not stated) ?
Key: F

Exercise: Short answer needed: outcome of this test for OC1(c2ccccc2)CN(c2ccccc2)C2=[N+]1CCS2 (configuration not stated) ?
Key: F

Exercise: Entry `CN1CCN(c2ccc(C(F)(F)F)cc2NC(=O)Nc2ccccc2)CC1` : call = ?
Key: T

Exercise: Could you kindly confirm the outcome this assay logged for `CN(C)CCCN(C(=O)c1ccc(S(=O)(=O)N2CCCCCC2)cc1)c1nc2ccc(F)cc2s1` ?
Key: T

* * *

Quick reference: activation of the listed items.
method-description: thallium flux activation in parental CHO cells, counter-screen for KCNQ1 potentiator project (AID 493006);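 for activation: fluorescence ratio of max minus min over baseline after K+ and Tl+ depolarization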
condition-parameters: parental CHO-K1 cells, FluxOR thallium flux, at 10 µM; active compounds read high
Calls of active or inactive are those of the source.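 The calls were made as follows: active = duplicate-averaged activation above buffer control mean plus 5 SD of those controls; inactive = the rest.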

compound-smiles: Cc1ccc(C(=O)Nc2nc(-c3ccccc3)c(-c3ccccc3)o2)cc1
endpoint-value: 201% (active)
//
compound-smiles: COc1cccc(N=Nc2ccc(O)c3ncccc23)c1
endpoint-value: 166% (active)

Please turn your attention to the following entry.
Input `COc1cccc2sc(Nc3nnc(-c4ccc(F)cc4)o3)nc12` . Output activation: 394% (active)

* * *

System: transient receptor potential cation channel C4 beta (TRPC4), mouse
method-description: activators of mouse TRPC4 channel, confirmation, cell-based, second round, Fluo4, HEK293 TRPC4beta/mu-opioid, 1 µM (AID 2461);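 for activation: 0% = wells without test compound as baseline of integrated fluorescence ratio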
condition-parameters: Fluo4 calcium fluorescence, at 1 µM; active compounds read high
Active and inactive are the calls of the source.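 The calls were made as follows: active = primary screen active and over 50% activation in each of two duplicate runs; inactive = the rest.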
outcome-measure: activation

Reference set, count: 8
compound: COc1cc(OC)c(CN2CCC(Cc3ccccc3)CC2)cc1Br
activation: inactive

compound: NCCCn1c(C(=O)c2cc(Cl)c(N)c(Cl)c2)c2ccccc2[n+]1[O-]
activation: 103% (active)

compound: CCOC(=O)C1(CC2CC2)CCN(Cc2cn[nH]c2-c2ccccc2)CC1
activation: inactive

compound: O=C(NC(=S)NNC(=O)c1ccco1)c1ccc(Br)cc1
activation: inactive

compound: O=C(N/N=C/c1cccnc1)c1ccccc1OCc1ccc(Cl)cc1
activation: inactive

compound: CC(c1cccnc1)N(CCN(C)C)C(=O)Nc1ccc(Cl)c(Cl)c1 (stereo not given)
activation: inactive

compound: CCOC(=O)C1(CC2CC2)CCN(Cc2ccc3cccc(F)c3n2)CC1
activation: inactive

compound: CN(C)CCCOc1cccc(Cl)c1
activation: 55% (active)

Noted for `Cc1ccccc1Nc1nc(NCc2ccco2)c2ccccc2n1` : its activation reads inactive

Recorded result, `CCOC(=O)C1(CCOc2ccccc2)CCN(Cc2ccc3c(c2)OCCO3)CC1` , activation: inactive

* * *

measurement-target: Potassium voltage-gated channel subfamily KQT member 2 (Rattus norvegicus) (UniProt O88943)
Sequence (O88943 whole entry, looked up): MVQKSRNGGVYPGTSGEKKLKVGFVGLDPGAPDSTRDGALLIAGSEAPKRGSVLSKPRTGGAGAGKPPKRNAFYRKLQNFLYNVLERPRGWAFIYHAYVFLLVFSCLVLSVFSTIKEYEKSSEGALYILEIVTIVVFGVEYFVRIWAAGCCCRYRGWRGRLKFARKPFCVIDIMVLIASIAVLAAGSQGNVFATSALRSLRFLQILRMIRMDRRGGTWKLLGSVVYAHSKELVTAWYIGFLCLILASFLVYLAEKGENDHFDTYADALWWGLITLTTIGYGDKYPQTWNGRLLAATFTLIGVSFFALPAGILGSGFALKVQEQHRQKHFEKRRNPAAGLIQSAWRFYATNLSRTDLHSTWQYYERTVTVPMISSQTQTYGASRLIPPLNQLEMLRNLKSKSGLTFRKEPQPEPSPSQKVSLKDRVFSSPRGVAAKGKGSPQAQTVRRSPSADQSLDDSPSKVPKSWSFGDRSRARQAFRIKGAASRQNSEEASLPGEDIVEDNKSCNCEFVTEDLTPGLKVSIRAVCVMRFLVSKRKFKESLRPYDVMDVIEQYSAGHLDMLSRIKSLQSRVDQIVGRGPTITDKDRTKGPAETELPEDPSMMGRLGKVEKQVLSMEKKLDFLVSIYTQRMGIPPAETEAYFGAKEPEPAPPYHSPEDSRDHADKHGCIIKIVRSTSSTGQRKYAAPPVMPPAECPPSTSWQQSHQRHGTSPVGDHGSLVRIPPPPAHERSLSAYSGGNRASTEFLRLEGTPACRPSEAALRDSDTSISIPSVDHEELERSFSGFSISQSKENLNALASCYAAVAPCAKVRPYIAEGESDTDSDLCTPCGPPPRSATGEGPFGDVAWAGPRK
method-description: rat KCNQ2 channel potentiation, selectivity assay for KCNQ1 potentiator project, KCNQ2-CHO-K1 cells (AID 493009);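 note: assay conditions were tuned for KCNQ1 rather than KCNQ2 modulators; signal is max minus min fluorescence divided by baseline after thallium stimulus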
condition-parameters: FluxOR thallium flux fluorescence, at 10 µM, scaled: buffer 0, activator control 100
Active and inactive are the calls of the source.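 Rule for the calls: active = mean duplicate potentiation above the buffer control mean plus 5 SD of buffer wells; inactive = the rest.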
Response enum: active, inactive

Reference set (3 entries):
molecule: O=C(CNCC1CCCCC1)Nc1ccc(OC(F)(F)F)cc1
class-assignment: inactive
--
molecule: O=C(NC(=S)N(CCCCO)C1CCCCC1)c1sc2ccccc2c1Cl
class-assignment: active
--
molecule: CCN(CC)CCSc1nc2ccccc2c(=S)n1-c1ccccc1
class-assignment: inactive

Exercise: Write down the call the test reported for this molecule. Item: `O=C(NC(=S)Nc1cccnc1)c1cc2ccccc2o1`
Key: active

Exercise: Outcome logged for Cc1cc(C)c(NC(=O)c2cn3c4c(c(N5CCN(C)CC5)c(F)cc4c2=O)OCC3C)c(C)c1 (configuration not stated) in this assay:
Key: inactive

Exercise: Test call, this molecule: `Cc1ccc(-c2nc(N)s[n+]2-c2ccccc2)cc1`
Key: active

Exercise: Check the results log: what was the call for `COc1ccc(CCC(=O)NCCOc2ccc(C)cc2)cc1` ?
Key: inactive

Exercise: Name the outcome recorded for OCCN1CCN(C2CCC(c3ccc(F)cc3)c3ccc(F)cc32)CC1 (configuration not stated) in the assay.
Key: inactive

Exercise: For `COc1cc(-c2noc(C)c2-c2ccc(N(C)C)nc2)cc(OC)c1OC` , which call appears in the assay record?
Key: inactive

Exercise: Hello, I am checking results. What call was entered for COC(=O)C1C(c2ccc(OC)c(OC)c2)NC(c2ccc(OC)c(OC)c2)C(C(=O)OC)S1(=O)=O (configuration not stated) ?
Key: inactive

Exercise: Hi, sorry to bother you, what did the test record for `COc1ccc2cc(CCNC(=O)C3CCCC3)c(=O)[nH]c2c1` ?
Key: inactive

* * *

measurement-target: Potassium voltage-gated channel subfamily KQT member 1 (Homo sapiens) (UniProt P51787)
Sequence (P51787 whole entry, looked up): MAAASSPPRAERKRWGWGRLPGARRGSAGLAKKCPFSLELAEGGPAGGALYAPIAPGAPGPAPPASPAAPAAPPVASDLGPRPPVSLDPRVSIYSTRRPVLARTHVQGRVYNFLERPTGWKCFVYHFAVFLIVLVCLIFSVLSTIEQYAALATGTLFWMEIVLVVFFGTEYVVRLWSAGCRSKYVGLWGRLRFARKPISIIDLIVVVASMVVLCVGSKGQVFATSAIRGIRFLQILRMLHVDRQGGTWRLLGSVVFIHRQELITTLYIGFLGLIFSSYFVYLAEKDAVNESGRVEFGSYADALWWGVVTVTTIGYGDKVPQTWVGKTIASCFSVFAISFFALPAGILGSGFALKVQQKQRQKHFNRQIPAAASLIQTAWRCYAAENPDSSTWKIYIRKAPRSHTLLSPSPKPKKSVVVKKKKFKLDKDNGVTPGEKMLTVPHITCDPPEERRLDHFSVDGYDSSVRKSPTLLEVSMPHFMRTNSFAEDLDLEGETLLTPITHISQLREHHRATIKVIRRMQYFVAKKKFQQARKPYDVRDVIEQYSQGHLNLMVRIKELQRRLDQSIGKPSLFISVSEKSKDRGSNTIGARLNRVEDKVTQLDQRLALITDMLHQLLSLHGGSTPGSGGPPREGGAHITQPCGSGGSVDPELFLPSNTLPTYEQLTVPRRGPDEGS
method-description: KCNQ1 channel current potentiators, confirmation, orthogonal assay for KCNQ1 potentiator project, IonWorks patch clamp, KCNQ1-CHO cells (AID 493184)
condition-parameters: automated patch clamp current, at 10 µM
Activity calls are given as the source filed them.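 The calls were made as follows: active = current rise at least 3 SD above the untreated control mean in each of two repeat wells; inactive = the rest.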
Form entry, call: pick from TRUE (active), FALSE (inactive)

molecule: Cc1nnnn1/C(=C\c1ccccc1)C(=O)OCC(=O)Nc1ccc(Cl)cc1F
class-assignment: FALSE
--
molecule: O=C(O)C(c1ccccc1)N1C(=O)/C(=C\c2ccc(-c3ccc(Br)cc3)o2)SC1=S (stereo not drawn)
class-assignment: TRUE

Next up:
Exercise: Given `Cc1ccc(C(=O)NC(=S)NNC(=O)COc2ccc([N+](=O)[O-])cc2)cc1` , state the outcome it received in this test.
Key: FALSE

* * *

method-description: thallium flux activation in parental CHO cells, counter-screen for KCNQ1 potentiator project (AID 493006);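 for activation: fluorescence ratio of max minus min over baseline after K+ and Tl+ depolarization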
condition-parameters: parental CHO-K1 cells, FluxOR thallium flux, at 10 µM
Calls of active or inactive are those of the source.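 The calls were made as follows: active = duplicate-averaged activation above buffer control mean plus 5 SD of those controls; inactive = the rest.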
Reply using exactly one outcome from active, inactive

molecule: O=C1C(=O)N(CCCc2ccccc2)c2ccccc21
class-assignment: inactive
--
molecule: COc1ccc(C)cc1-n1c(SCC(=O)Nc2cc(C)on2)nc2ccccc2c1=O
class-assignment: inactive
--
molecule: CCCc1cc(-c2n[nH]c(=S)n2C(C)c2ccccc2)cs1 (stereo not drawn)
class-assignment: active
--
molecule: COc1ccc(OCC(=O)NC(=S)Nc2ccc(N3CCOCC3)c(Cl)c2)cc1
class-assignment: active

Exercise: I would be grateful if you could indicate the recorded call for `Cc1ccc(C)c(NC(=S)NC(=O)c2cncc(Br)c2)c1` .
Key: inactive

Exercise: Please state the recorded outcome for this molecule: C=CCSc1nc2c(c(=O)[nH]1)C(C(C)C)C(C#N)=C(N)O2 (stereo not drawn)
Key: inactive

* * *

measurement-target: Potassium voltage-gated channel subfamily KQT member 1 (Homo sapiens)
method-description: KCNQ1 potassium channel potentiators, confirmation, FluxOR thallium flux, CHO cells, duplicates (AID 493007)
condition-parameters: KCNQ1 cell line, FluxOR thallium flux fluorescence, at 10 µM, % of reference activator effect, buffer zero
Calls of active or inactive are those of the source.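 The calls were made as follows: active = potentiation averaged over duplicate wells exceeding buffer-only control mean by more than 3 SD; inactive = the rest.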
Pick one and only one: active, inactive

These solved cases illustrate the format of a correct answer.
molecule: CC(Sc1cccc[n+]1[O-])c1ccccc1 (configuration not stated)
class-assignment: inactive
//
molecule: CCOc1ccc(C2C(C#N)=C(N)N(c3sc4c(c3C#N)CCCC4)C3=C2C(=O)CCC3)cc1 (configuration not stated)
class-assignment: inactive
//
molecule: COc1ccc(NC(=S)NCCC(c2ccccc2)c2ccccc2)c(OC)c1
class-assignment: active
//
molecule: COc1cc(C(=O)NC(=S)N(CCc2ccccc2)CCc2ccccc2)cc(OC)c1OC
class-assignment: active

Exercise: Recorded test outcome, item `COC(=O)N/N=C/c1cc(C)n(-c2ccc(Br)cc2)c1C`
Key: inactive

Exercise: Give the logged outcome of this assay for the following molecule: `CCOC(=O)c1sc(NC(=O)c2ccccc2C(=O)O)c(C(=O)OCC)c1C`
Key: inactive

Exercise: Outcome? `COc1ccccc1C(=O)OCC(=O)Nc1ccc(Cl)cn1`
Key: inactive
